Record form. Attribute: cell viability. Fill in for each entry.
- Test system: HL-60
- method: cell viability (% survival relative to DMSO control); higher = less cytotoxic
- experimental_setup: 0.1 µM; 72 h; co-treatment: pictilisib 100 nM
Express your answer in %, writing the number without its unit.

Lab note: C=CC(=O)c1ccc(O)cc1 gave cell viability of 104

Entry CC/C=C\C[C@H]1C(=O)CC[C@@H]1CC(=O)OC [methyl jasmonate] , cell viability reported as 101

The value of cell viability measured for the compound C[C@]12C=CC(=O)C=C1CC[C@@H]1[C@@H]2[C@@H](O)C[C@@]2(C)[C@H]1CC[C@]2(O)C(=O)CO turned out to be 99.1

Measured cell viability, COc1ccc2c(NC(=O)Nc3cccc(C(F)(F)F)n3)ccnc2c1 : 98.4

# cell viability of N[C@@H](CC(=O)N1CCn2c(nnc2C(F)(F)F)C1)Cc1cc(F)c(F)cc1F = 99.5

cell viability recorded for this compound, CCc1c(C(=O)C(N)=O)c2c(OCC(=O)O)cccc2n1Cc1ccccc1 , is 107

// field: cell viability; key: CN(CCCOc1ccc(Cc2ccccc2)cc1)CCC(=O)O ; value = 114

// recorded cell viability for CN(CCOc1ccc(Cc2sc(O)nc2O)cc1)c1ccccn1 : 96.3

# compound CCn1c(=Cc2cccc[n+]2CC)sc(=C2Sc3ccccc3N2C)c1=O ; its cell viability = 99.2

Taken from the supplement of paper PMC8671470.
